- Tested on: NCI-H1975
- assay.explanation: relative viability (nuclei count vs DMSO), 5 days (fraction); higher = more cells survive
- condition.summary: first compound 2.53 µM
measurement.type: relative viability
One number for each entry.

The cases that follow already have their relative viability on record.
C=C1C(=O)O[C@@H](CCCCCCCC)[C@@H]1C(=O)O [C-75] + Cc1cc(Nc2cc(N3CCN(C)CC3)nc(Sc3ccc(NC(=O)C4CC4)cc3)n2)n[nH]1 [Tozasertib] (partner 0.1 µM)    0.732
Oc1nc(-c2ccc(C(F)(F)F)cc2)nc2c1CSCC2 [XAV939] + Nc1nc2[nH]cc(CCc3ccc(C(=O)N[C@@H](CCC(=O)O)C(=O)O)cc3)c2c(=O)[nH]1 [Pemetrexed] (partner 0.2 µM)    0.246
C=C1C(=O)O[C@@H](CCCCCCCC)[C@@H]1C(=O)O [C-75] + CS(=O)(=O)N1CCN(Cc2cc3nc(-c4cccc5[nH]ncc45)nc(N4CCOCC4)c3s2)CC1 [Pictilisib] (partner 1 µM)    0.326
C=C1C(=O)O[C@@H](CCCCCCCC)[C@@H]1C(=O)O [C-75] + Nc1ncn([C@H]2C[C@H](O)[C@@H](CO)O2)c(=O)n1 [Decitabine] (partner 2 µM)    0.299

Proceeding to the next compound to report its relative viability.
(Q) # return recorded relative viability for entry Oc1nc(-c2ccc(C(F)(F)F)cc2)nc2c1CSCC2 [XAV939] + C[C@]1(O)C[C@@H](c2nc(-c3ccc4ccc(-c5ccccc5)nc4c3)c3c(N)nccn32)C1 [Linsitinib] (partner 1 µM)
(A) 0.673
